tested on: Pseudomonas aeruginosa; assay: Antimicrobial activity against Pseudomonas aeruginosa ATCC 15692 assessed as zone of inhibition at 2 mg/ml after 24 hrs by agar well diffusion method; type: functional; details: read-out: DIZ
test readout: zone of inhibition at 2000 µg/mL (mm)
One number for each entry, in mm.

Use the examples below as a reference point.
CSc1ccc(Cc2cc(=O)c3ccccc3[nH]2)cc1 | 29
O=C(O)c1cn(C2CC2)c2cc(N3CCNCC3)c(F)cc2c1=O | 35
CCCC/C=C/Cc1cc(=O)c2ccccc2[nH]1 | 35

Inquiry: Given "CSc1ccc(Cc2cc(=O)c3ccccc3n2C)cc1" , respond with its zone of inhibition at 2000 µg/mL.
Reply text: 36
